- Tested on: LXRa:RXRa (NR concentration 270 nM, RXRa partner concentration 90 nM)
- measurement.notes: PBM binding z-score (relative to random genomic background probes); higher = stronger binding; sequences stand for … in GC…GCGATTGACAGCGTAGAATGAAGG
readout: PBM binding z-score
One number for each entry.

Consider the worked cases shown below.
In [3]: df
Out[3]:
                     ordered_residues  obs_value
0  GCAGACAGGTGAAACGCAGGTAGCTCAGGGTGGC     -0.318
1  CGAACGAGGGTATGAGTTGATAGCAAATGCCGAT       -0.2
2  ATCTCTGGGTAAAGTTCAGTGAAAGATCGATAGA       1.87
3  ACTAGTTGGTCAGCTGAGGTCACACATAATTCGG       3.14

Here are 8 sequences. What values of PBM binding z-score were reported for them?
1. CTACCACGGTGAACAAGGTCGTTGATTACTATTC
2. TCTTGTAGATCAGCAGTTTAAGAAAGCTGGCCAA
3. CCGACTGGGGCATAAGGTTATCATAAGCCAGCCC
4. ACTTACGGGTCAACGAGGTTATAGCCCGCGTATA
5. GTACCAAGGTGAATGGGTCGTTGATGAGTAGGCG
6. GCGACTGGGGCATCAGCAGCTTACCATAACTTAA
7. GCTAGTTGGTCTGTAAAAGGTCACACACCGGTCG
8. ACTATTAGTTGACTTATGGCAACCGATACGACGC

RESULT:
0.708
-0.0226
0.921
4.99
0.288
-0.694
4.45
0.293

Here are 4 sequences. What values of PBM binding z-score were reported for them?
1. TCTTGTAGATCAAGAGGAGGTTAAGAAAGATCGA
2. AATACAGGGTCATCGTAAGCCAGAGTACGCACAG
3. CCTACTGGGCCACAGGTCATTGATTCCAATGCTC
4. ATATGTAGTTTAGCTGGGGTCATTCAGACTAGGC

RESULT:
1: 0.95; 2: 6.05; 3: 1.55; 4: 4.3

---

Kindly supply the reported PBM binding z-score values for the records listed here.
- System: LXRa:RXRa (NR concentration 270 nM, RXRa partner concentration 90 nM)
- measurement.notes: PBM binding z-score (relative to random genomic background probes); higher = stronger binding; sequences stand for … in GC…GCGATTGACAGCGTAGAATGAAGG
One number for each entry.

Consider the worked cases shown below.
>>> df
                     ordered_residues  obs_value
0  AGTCAAAGTTCATCTAGGTTACGTAAGATATGCT       6.16
1  GCTATTAGTTGAAATGGCAACCGAATGATTCTCG     -0.424

Here are 6 sequences. What values of PBM binding z-score were reported for them?
1. CCTTACAGGTCACTGACAGGTTATAGCATTTGGA
2. AGTATGAGGTTATTAAGATCAGGGAATTGCGGTC
3. TCTTGTAGATCAACAGGAGGTTAAGTAAGATCGA
4. GGAACGAGGGCATTCGAGTTGAGAGCATGGCGAT
5. CCTGCTAGGTCAATGGTCACCTAAAGCAGCTCGC
6. CGTCCAAGGTCAGCAGGTCGGTGAAAGCGACGTG

RESULT:
1: 4.93; 2: 1.75; 3: 1.3; 4: 1.88; 5: 2.46; 6: 3.29

Here are 5 sequences. What values of PBM binding z-score were reported for them?
1. ATCGAACGGTCGTGAGGTGAGTATACAGAAAGGC
2. ACTCGGAGGACAAAGGTCAGTGCTACGCCAGTGA
3. TCATATAGGCAATACAGGTGAAAGTCGGCATCTA
4. TCATATAGGTAAAGGTGAAAGTAGAACGATATGA
5. CATACAGGGTCAGCTATGCCAGAGTAGGGACGGC

RESULT:
[-0.0756, 3.67, 0.731, 1.4, 2.68]

---

- System: PPARg:RXRa 270nM:90nM, anti-RXR (NR concentration 270 nM, RXRa partner concentration 90 nM)
- measurement.notes: PBM binding z-score (relative to random genomic background probes); higher = stronger binding; sequences stand for … in GC…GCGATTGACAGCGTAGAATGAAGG
readout: PBM binding z-score
Answers are plain numbers.

In [3]: df
Out[3]:
                     ordered_residues              readout  obs_value
0  CATACTAGGTCACGAAAGGTCAAAGTCGAATGAC  PBM binding z-score       7.93
1  TCTAGTTGGTAAAAGGTCACACACTCGAAATGCG  PBM binding z-score       8.46

QUERY: Which PBM binding z-score reading was recorded for the sequence TAGCCTAGGTCCTTGGGCCAGTATAGTACGCATC ?
RESULT: -0.847

---

Kindly supply the reported PBM binding z-score values for the records listed here.
- System: RARb:RXRa (NR concentration 270 nM, RXRa partner concentration 90 nM)
- measurement.notes: PBM binding z-score (relative to random genomic background probes); higher = stronger binding; sequences stand for … in GC…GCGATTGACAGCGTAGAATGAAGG
Numbers only.

Consider the worked cases shown below.
In [3]: df
Out[3]:
                     ordered_residues  obs_value
0  TAGCCTAGGTCATGCGCGCCAGTATAGTGTCGGC       3.74
1  TCGAGTAGGTTAGGGGCATTCATAATGGCGTCGA       1.07
2  TCTTGTAGATCGAAGGTTAAGAAAGCCGAAGCCT      0.667
3  CCAGACAGGTGAGAAGGTAACTCCGCCTCGATTA      0.539
4  TCTGCTACGTCAACGATGGTCAGCTAATCTGCTA    -0.0266
5  CATCAAAGTTCAAGGTAACGTAACAGAAAGCAGC       5.31

Here are 2 sequences. What values of PBM binding z-score were reported for them?
1. TCGAGTAGGTTAGGGGCATTCACAATGGCGTCGA
2. TTGCCAAGGTGAGCTGAGGTCGTTGATCCAACTC

RESULT:
1: 0.977; 2: 1.73

Here are 7 sequences. What values of PBM binding z-score were reported for them?
1. CGTCCAAGGTCATAGGAGGTCAGGGAAGACAGAT
2. ATCTCTAGGTAGAAGTTCAGTGAATCCCGAGGAT
3. GGAACGAGGGCATTCGAGTTGATACCATGGCGAT
4. AGGATGAGGTTATTAAGATCAGGGAATTGCGGTC
5. TAGCCTAGGTTATTGGGCCAGTATAGTACGCATC
6. AGAATGAGGTTACCAACGATCAGGGAAACGCTTG
7. TCGAGTACGTTACCAATGGGGCATTCAGCTTTCT

RESULT:
1. 5.31
2. 1.07
3. 1.93
4. 1.72
5. 0.689
6. 1.83
7. 0.0471

---

- System: PPARg:RXRa IVT, anti-PPARg (NR concentration 270 nM, RXRa partner concentration 90 nM)
- measurement.notes: PBM binding z-score (relative to random genomic background probes); higher = stronger binding; sequences stand for … in GC…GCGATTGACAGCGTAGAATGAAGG
Kindly supply the reported PBM binding z-score values for the records listed here.
One number for each entry.

Consider the worked cases shown below.
                     ordered_residues                               system_name  obs_value
0  AGAATGAGGTTACCAAAGATCAGGCAAACGCTTG  PPARg:RXRa IVT, anti-PPARg (NR concentration 270 nM, RXRa partner concentration 90 nM)       3.49
1  ATCTCTAGGAAAAAGTTCAGTGAATCCCGAGGAT  PPARg:RXRa IVT, anti-PPARg (NR concentration 270 nM, RXRa partner concentration 90 nM)    -0.0888
2  ATCTCTAGGTAACCAAGTGCAGTGAATGCCGAAC  PPARg:RXRa IVT, anti-PPARg (NR concentration 270 nM, RXRa partner concentration 90 nM)       2.57

Now consider a different sequence.
QUERY: Which PBM binding z-score reading was recorded for the sequence GCAGACAGGTGATACGCAGGTAACTCAGGGTGGC ?
RESULT: -0.471

---

- Tested on: LXRb homodimer (NR concentration 270 nM)
- measurement.notes: PBM binding z-score (relative to random genomic background probes); higher = stronger binding; sequences stand for … in GC…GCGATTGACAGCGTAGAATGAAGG
readout: PBM binding z-score
Answers are plain numbers.

Consider the worked cases shown below.
                     ordered_residues  obs_value
0  AGAACGAGGGCACGCTGTGTTGATAGCAGAGTAG      -1.07
1  CAAACTAGGTCAAGGTCAAAGCCGGTTTGTGCCA       1.05

QUERY: Which PBM binding z-score reading was recorded for the sequence CCTACTGGGCCAGAAAGGTCATTGATGCCGATAA ?
RESULT: 0.28

src = the supplement of paper PMC6555819
